// data source = ChEMBL document CHEMBL1138609

Target: Acid-sensing ion channel 3 (Homo sapiens)
Sequence (whole entry): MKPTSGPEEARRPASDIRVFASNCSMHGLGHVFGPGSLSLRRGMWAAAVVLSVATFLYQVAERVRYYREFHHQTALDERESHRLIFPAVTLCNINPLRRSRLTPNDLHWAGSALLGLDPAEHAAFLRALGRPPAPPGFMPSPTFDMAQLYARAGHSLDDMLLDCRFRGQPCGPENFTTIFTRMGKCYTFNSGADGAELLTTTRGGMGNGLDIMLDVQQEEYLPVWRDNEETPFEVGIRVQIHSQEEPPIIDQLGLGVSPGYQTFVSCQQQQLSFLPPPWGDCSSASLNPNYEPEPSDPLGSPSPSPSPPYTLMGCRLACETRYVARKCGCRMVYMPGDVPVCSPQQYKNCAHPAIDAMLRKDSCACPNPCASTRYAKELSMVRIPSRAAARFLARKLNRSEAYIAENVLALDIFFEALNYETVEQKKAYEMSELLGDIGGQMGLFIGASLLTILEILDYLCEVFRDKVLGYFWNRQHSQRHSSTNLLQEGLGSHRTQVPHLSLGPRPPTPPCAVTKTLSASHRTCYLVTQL
Experiment: Inhibition of ASIC3 assessed as inhibition of peak current at 1 uM by patch clamp electrophysiology relative to baseline
Categorized via inhibition: bucket A (below 10%), bucket B (10% to below 30%), bucket C (30% or more)

For NC(N)=NC(=O)c1nc(Cl)c(Nc2ccc3ncccc3c2)nc1N , which inhibition bin applies?
bucket C

For NC(N)=NC(=O)c1nc(Cl)c(NCC2CCc3ccccc3C2)nc1N (configuration not stated) , which inhibition bin applies?
bucket C

For NC(N)=NC(=O)c1nc(Cl)c(OCc2ccc3ccccc3c2)nc1N , which inhibition bin applies?
bucket A

For NC(N)=NC(=O)c1nc(Cl)c(NCCc2ccc(F)cc2)nc1N , which inhibition bin applies?
bucket C

For CN(C)c1nc(N)c(C(=O)NC(=N)N)nc1Cl , which inhibition bin applies?
bucket C

For NC(N)=NC(=O)c1nc(Cl)c(Sc2ccccc2)nc1N , which inhibition bin applies?
bucket B

For NC(N)=NC(=O)c1nc(Cl)c(NCc2ccc3ccccc3c2)nc1N , which inhibition bin applies?
bucket B

For COc1nc(N)c(C(=O)N=C(N)N)nc1Cl , which inhibition bin applies?
bucket B

For NC(N)=NC(=O)c1ncc(-c2ccccc2-c2ccccc2)nc1N , which inhibition bin applies?
bucket A

For NC(N)=NC(=O)c1nc(Cl)c(N2CCCC2)nc1N , which inhibition bin applies?
bucket B

For NC(N)=NC(=O)c1nc(Cl)c(Oc2ccc3ccccc3n2)nc1N , which inhibition bin applies?
bucket C

For NC(N)=NC(=O)c1nc(Cl)c(NCc2ccccc2Cl)nc1N , which inhibition bin applies?
bucket C

----------
Biological target: Acid-sensing ion channel 3 (Homo sapiens)
Sequence (whole entry): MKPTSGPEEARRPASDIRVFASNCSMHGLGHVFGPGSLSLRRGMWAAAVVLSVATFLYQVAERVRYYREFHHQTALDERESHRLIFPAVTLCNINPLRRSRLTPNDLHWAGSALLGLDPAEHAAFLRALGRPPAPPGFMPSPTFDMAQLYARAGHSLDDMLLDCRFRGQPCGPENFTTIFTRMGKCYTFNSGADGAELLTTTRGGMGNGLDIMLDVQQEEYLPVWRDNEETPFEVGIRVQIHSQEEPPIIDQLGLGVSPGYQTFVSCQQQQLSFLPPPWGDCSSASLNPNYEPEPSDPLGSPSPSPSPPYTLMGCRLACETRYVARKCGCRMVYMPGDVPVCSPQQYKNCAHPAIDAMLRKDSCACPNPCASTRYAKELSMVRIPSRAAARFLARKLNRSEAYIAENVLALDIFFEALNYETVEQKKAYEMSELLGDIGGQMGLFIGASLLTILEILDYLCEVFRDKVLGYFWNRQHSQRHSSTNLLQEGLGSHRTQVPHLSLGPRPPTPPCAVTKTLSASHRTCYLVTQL
Assay: Inhibition of ASIC3 at 20 uM assessed as inhibition of peak current by patch clamp electrophysiology relative to baseline
Assign inhibition to each entry below.
The figure you give is taken to be in %; do not add the unit.

Item NC(N)=NC(=O)c1nc(Cl)c(Nc2cccc(Cl)c2)nc1N : provide inhibition
94

Item NC(N)=NC(=O)c1nc(Cl)c(Nc2ccc3ccccc3c2)nc1N : provide inhibition
98

Item NC(N)=NC(=O)c1nc(Cl)c(NCC(F)(F)F)nc1N : provide inhibition
74

Item NC(N)=NC(=O)c1nc(Cl)c(N2CCc3ccccc32)nc1N : provide inhibition
89

Item NC(N)=NC(=O)c1nc(Cl)c(Oc2ccccc2)nc1N : provide inhibition
90

Item NC(N)=NC(=O)c1ncc(-c2cccc(-c3ccoc3)c2)nc1N : provide inhibition
82

Item CN(c1nc(N)c(C(=O)N=C(N)N)nc1Cl)C1CCCCC1 : provide inhibition
57

Item NC(N)=NC(=O)c1ncc(-c2cccc(-c3ccsc3)c2)nc1N : provide inhibition
90

Item CCCN(C)c1nc(N)c(C(=O)N=C(N)N)nc1Cl : provide inhibition
91

Item NC(N)=NC(=O)c1nc(Cl)c(N2CCc3ccccc3C2)nc1N : provide inhibition
96

Item NC(N)=NC(=O)c1nc(Cl)c(NCc2ccccc2Cl)nc1N : provide inhibition
90

Item NC(N)=NC(=O)c1nc(Cl)c(O)nc1N : provide inhibition
9

----------
Biological target: Acid-sensing ion channel 3 (Homo sapiens)
Test: Inhibition of ASIC3 at 20 uM assessed as inhibition of peak current by patch clamp electrophysiology relative to baseline
MEASURE: inhibition (%)
The figure you give is taken to be in %; do not add the unit.

Print Acid-sensing ion channel 3 (Homo sapiens) inhibition for NC(N)=NC(=O)c1nc(Cl)c(NC2CCCCC2)nc1N .
92

Print Acid-sensing ion channel 3 (Homo sapiens) inhibition for NC(N)=NC(=O)c1nc(Cl)c(Nc2ccccn2)nc1N .
25

Print Acid-sensing ion channel 3 (Homo sapiens) inhibition for NC(N)=NC(=O)c1nc(Cl)c(NCC2CCCCC2)nc1N .
96

Print Acid-sensing ion channel 3 (Homo sapiens) inhibition for NC(N)=NC(=O)c1nc(Cl)c(Nc2ccccc2)nc1N .
95

----------
Molecular target: Acid-sensing ion channel 3 (Homo sapiens) (UniProt Q9UHC3)
Test: Inhibition of ASIC3 assessed as inhibition of peak current at 1 uM by patch clamp electrophysiology relative to baseline
MEASURE: inhibition (%)
The figure you give is taken to be in %; do not add the unit.

Print Acid-sensing ion channel 3 (Homo sapiens) (UniProt Q9UHC3) inhibition for NC(N)=NC(=O)c1nc(Cl)c(Nc2ccccc2)nc1N .
44

Print Acid-sensing ion channel 3 (Homo sapiens) (UniProt Q9UHC3) inhibition for NC(N)=NC(=O)c1nc(Cl)c(Oc2ccccc2)nc1N .
23

Print Acid-sensing ion channel 3 (Homo sapiens) (UniProt Q9UHC3) inhibition for NC(N)=NC(=O)c1nc(Cl)c(Nc2cnc3ccccc3c2)nc1N .
28

Print Acid-sensing ion channel 3 (Homo sapiens) (UniProt Q9UHC3) inhibition for NC(N)=NC(=O)c1nc(Cl)c(Oc2ccc3ccccc3c2)nc1N .
33

Print Acid-sensing ion channel 3 (Homo sapiens) (UniProt Q9UHC3) inhibition for NC(N)=NC(=O)c1nc(Cl)c(NCc2cccc(F)c2)nc1N .
29

Print Acid-sensing ion channel 3 (Homo sapiens) (UniProt Q9UHC3) inhibition for NC(N)=NC(=O)c1nc(Cl)c(N2CCc3ccccc3C2)nc1N .
52

Print Acid-sensing ion channel 3 (Homo sapiens) (UniProt Q9UHC3) inhibition for NC(N)=NC(=O)c1ncc(-c2cccc(-c3ccccc3)c2)nc1N .
72

Print Acid-sensing ion channel 3 (Homo sapiens) (UniProt Q9UHC3) inhibition for N=C(N)NC(=O)c1nc(Cl)c(N)nc1N [AMILORIDE] .
22

Print Acid-sensing ion channel 3 (Homo sapiens) (UniProt Q9UHC3) inhibition for CCCNc1nc(N)c(C(=O)N=C(N)N)nc1Cl .
24

Print Acid-sensing ion channel 3 (Homo sapiens) (UniProt Q9UHC3) inhibition for Cc1cc(C)cc(-c2cnc(C(=O)N=C(N)N)c(N)n2)c1 .
39

Print Acid-sensing ion channel 3 (Homo sapiens) (UniProt Q9UHC3) inhibition for NC(N)=NC(=O)c1nc(Cl)c(NCCc2cccc(F)c2)nc1N .
46

Print Acid-sensing ion channel 3 (Homo sapiens) (UniProt Q9UHC3) inhibition for NC(N)=NC(=O)c1nc(Cl)c(Nc2ccncc2)nc1N .
14

Print Acid-sensing ion channel 3 (Homo sapiens) (UniProt Q9UHC3) inhibition for NC(N)=NC(=O)c1nc(Cl)c(Nc2ccc3ccccc3c2)nc1N .
62

Print Acid-sensing ion channel 3 (Homo sapiens) (UniProt Q9UHC3) inhibition for CSc1nc(N)c(C(=O)N=C(N)N)nc1Cl .
12

Print Acid-sensing ion channel 3 (Homo sapiens) (UniProt Q9UHC3) inhibition for NC(N)=NC(=O)c1nc(Cl)c(NCc2ccc(Cl)cc2)nc1N .
46

Print Acid-sensing ion channel 3 (Homo sapiens) (UniProt Q9UHC3) inhibition for CCCN(C)c1nc(N)c(C(=O)N=C(N)N)nc1Cl .
32

Print Acid-sensing ion channel 3 (Homo sapiens) (UniProt Q9UHC3) inhibition for NC(N)=NC(=O)c1ncc(-c2cccc(-c3ccsc3)c2)nc1N .
58

Print Acid-sensing ion channel 3 (Homo sapiens) (UniProt Q9UHC3) inhibition for N=C(N)NC(=O)c1nc(Cl)c(NCCc2ccccc2)nc1N .
46

Print Acid-sensing ion channel 3 (Homo sapiens) (UniProt Q9UHC3) inhibition for NC(N)=NC(=O)c1nc(Cl)c(Nc2ccc(C(F)(F)F)cc2)nc1N .
50

Print Acid-sensing ion channel 3 (Homo sapiens) (UniProt Q9UHC3) inhibition for NC(N)=NC(=O)c1nc(Cl)c(Oc2ccc3cccnc3c2)nc1N .
32

Print Acid-sensing ion channel 3 (Homo sapiens) (UniProt Q9UHC3) inhibition for NC(N)=NC(=O)c1ncc(-c2ccccc2)nc1N .
35

Print Acid-sensing ion channel 3 (Homo sapiens) (UniProt Q9UHC3) inhibition for NC(N)=NC(=O)c1nc(Cl)c(NCc2ccccc2F)nc1N .
26

Print Acid-sensing ion channel 3 (Homo sapiens) (UniProt Q9UHC3) inhibition for NC(N)=NC(=O)c1ncc(-c2ccc3ccccc3c2)nc1N .
6

Print Acid-sensing ion channel 3 (Homo sapiens) (UniProt Q9UHC3) inhibition for NC(N)=NC(=O)c1nc(Cl)c(NCC2CCCCC2)nc1N .
28
